These measurements were taken from ChEMBL document CHEMBL3832071.

# Tested on: Homo sapiens
# Assay info: Apparent Volume of distribution (Vd) of […] following oral and intravenous (IV) administration of Mycophenolate Mofetil to 12 healthy volunteers
# Assay type: ADME, organism-based
# Cond: in vivo, po, dosed compound id 90, dosed compound name MYCOPHENOLATE MOFETIL, gender male and female, tissue Plasma
Recorded metric: Vd (L/kg)
Express your answer in L/kg, writing the number without its unit.

q: Vd for COc1c(C)c2c(c(O)c1C/C=C(\C)CCC(=O)O)C(=O)OC2 ?
a: 4
